Hello, the source for this data is ChEMBL document CHEMBL3526010, in case you need it.

# Test system: Plasma
# assay-procedure: Tmax in human plasma treated with 60 mg, po of [14C]edoxaban by LC-MS/MS analysis
# Assay type: ADME, organism-based
# experimental-parameters: in vivo
recorded-endpoint: Tmax (h)
Only the number, expressed in h, is required.

Task item: Give Tmax (Plasma) of the following compound: `CN(C)C(=O)[C@H]1CC[C@H](NC(=O)C(=O)Nc2ccc(Cl)cn2)[C@H](NC(=O)c2nc3c(s2)CNCC3)C1`
Reply: 1

Task item: Give Tmax (Plasma) of the following compound: `CN1CCc2nc(C(=O)N[C@@H]3C[C@@H](C(=O)O)CC[C@@H]3NC(=O)C(=O)Nc3ccc(Cl)cn3)sc2C1`
Reply: 1.8

Task item: Give Tmax (Plasma) of the following compound: `CN1CCc2nc(C(=O)N[C@@H]3C[C@@H](C(=O)N(C)C)CC[C@@H]3NC(=O)C(=O)O)sc2C1`
Reply: 1.8

Task item: Give Tmax (Plasma) of the following compound: CNC(=O)[C@H]1CC[C@H](NC(=O)C(=O)Nc2ccc(Cl)cn2)[C@H](NC(=O)c2nc3c(s2)CN(C)CC3)C1 (stereo in doubt; M8)
Reply: 1.8
